Study target: T1, SP1 peptide (synthetic peptide with the sequence of the SP1 region of ANGPTL3) (mouse and human (the sequence is the …))
T1 construct: also called ANGPTL3 SP1; hANGPTL3 SP1 peptide
T1 peptide: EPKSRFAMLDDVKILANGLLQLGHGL
Assay remarks: SPR (BIACORE 3000), antibody captured on anti-mouse IgG Fc chip, SP1 peptide injected, 1:1 model
pKd: −log10 of the molar value.

{"columns": ["Binder", "pKd"],
 "data": [
  ["antibody 4.9.1 (antibody, IgG1, V domains shown, Biotinylated in the alanine-scanning ELISA) VH: EVQLQQSGPELVKPGASVKMSCKASGYTFTSYVMHWVKQKPGQGLEWIGYINPYNDGTKYNENFKGKATLTSDKSSSTAYMEFSSLTSEDSAVYYCAREGDYYGYFDYWGQGTTLTVSS VL: DIQMTQTTSSLSASLGDRVTISCRASQDIRNYLNWYQQKPDGTVKLLIYYTSRLHSGVPSRFSGSGSGTDYSLTISNLEQEDIATYFCQQGNTLPPTFGGGTKLEIKR", 7.34],
  ["antibody 5.50 (antibody, IgG2b, V domains shown, Biotinylated in the alanine-scanning ELISA) VH: EVQLQQSGPELVKPGASVKISCKASGFTFTDYYMNWVKQSHGESLEWIGDINPNNGGTIYNQKFRGKATLTVDKSSSTAYMELRSLTSEDSAVYYCVRLPWYFDVWGTGTTVTVSS VL: DVLMTQTPLSLPVSLGDQASISCRSSQSILHSNGNTYLEWFLQKPGQSPKLLIYKVSNRFSGVPDRFSGSGSGTDFTLKISRVEAEDLGVYYCFQGSHVPYTFGGGTKLEIKR", 8.75],
  ["antibody 4.7.1 (antibody, IgG2b, V domains shown, Biotinylated in the alanine-scanning ELISA) VH: EVQLQQSGPELVKPGASVKMSCKASGYTFTSYVMHWVKQKPGQGLEWIGYFNPYNDGTKYNEKFKGKATLTSDKSSSTAYMELSSLTSEDSAVYYCAREGDYYGYFDYWGQGTTLTVSS VL: DIQMTQTTSSLSASLGDRVTISCRASQDISNFLNWYQQKPDGTVKLLIYYTSRLHSGVPSRFSGSGSGTDYSLTISNLEQEDIATYFCQQGNTLPPTFGGGTKLEIKR", 7.58],
  ["antibody 5.35 (antibody, IgG2a, V domains shown, Biotinylated in the alanine-scanning ELISA) VH: QVTLKESGPGILHPSQTLTLTCSFSGFSLNTFGLAVGWIRQPSGKGLEWLGHIWWDDHKYYNGVLKSRLTISKDSSKKQVFLRIANVDTADTARYYCARLETGTGFAYWGQGTLVTVSA VL: DIVLTQSTPSVPVTPGESVSISCRSSKSLLDSNGITYLYWFLQRPGQSPQLLIYRMSKLASGVPDRFSGSGSETAFTLRISRVEAEDVGVYYCMQPLEYPFTFGAGTKLELNG", 8.74]
]}

Data origin: patent US20110243948A1
